# Measurement description: CCTE_Shafer_MEA_dev_firing_rate_mean: CCTE's Neural Network Formation Assay for Mean Firing Rate, Shafer Lab (AID 2284031);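 further: AUC of well mean spike rate recorded on DIV 5 7 9 and 12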
Calls of active or inactive are those of the source. How the source made its calls: active means hit-call score of the fitted dose curve at least 0.9, where 1 is the maximum; inactive means score below 0.9.
// classify into active, inactive

Completed entries (count: 5):
{"columns": ["Compound", "Label value"],
 "data": [
  ["C[n+]1ccc(-c2ccccc2)cc1", "inactive"],
  ["CN[C@]1(c2ccccc2Cl)CCCCC1=O", "inactive"],
  ["O=[As]O", "active"],
  ["CC1(C)[C@H](C=C(Cl)Cl)[C@H]1C(=O)OCc1c(F)c(F)cc(F)c1F", "active"],
  ["CCCCC(CC)COC(=O)c1cc(Br)c(Br)c(Br)c1Br (stereo unspecified)", "inactive"]
]}

Exam item: Recorded test call requested for [CH3][Sn]([CH3])[CH3]
Marked response: active

Exam item: Recorded test call requested for CC1(C)[C@H](C(=O)O[C@H](C#N)c2cccc(Oc3ccccc3)c2)[C@@H]1C=C(Br)Br
Marked response: active

Exam item: Recorded test call requested for CC1(C)C(C=C(Cl)c2ccc(Cl)cc2)C1C(=O)OC(C#N)c1ccc(F)c(Oc2ccccc2)c1 (stereo unspecified)
Marked response: active

Exam item: Recorded test call requested for CC(C)CCCCCCCOP(=O)(Oc1ccccc1)Oc1ccccc1
Marked response: inactive
